The origin of these recorded values is patent US6730666B1.

# measurement target: FGFR-1 alkaline phosphatase fusion protein (FRAP) (Mus musculus, UniProt P16092)
# Construct: soluble FGFR-1 ectodomain alkaline phosphatase fusion protein (FRAP); made in house; host or cells: NIH 3T3 cells (conditioned medium)
# Sequence (P16092 22-376 limits assumed): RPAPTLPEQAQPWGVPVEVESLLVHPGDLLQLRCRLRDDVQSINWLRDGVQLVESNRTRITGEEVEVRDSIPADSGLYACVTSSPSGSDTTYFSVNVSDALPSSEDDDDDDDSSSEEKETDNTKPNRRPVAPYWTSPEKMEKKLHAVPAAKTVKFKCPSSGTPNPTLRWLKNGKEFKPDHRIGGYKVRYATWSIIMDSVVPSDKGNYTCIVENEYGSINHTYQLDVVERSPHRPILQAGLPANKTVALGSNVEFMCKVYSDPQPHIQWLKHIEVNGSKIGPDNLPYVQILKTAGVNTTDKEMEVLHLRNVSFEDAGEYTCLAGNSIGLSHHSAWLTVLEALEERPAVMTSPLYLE
# procedure text: Binding of soluble FGFR-1 alkaline phosphatase fusion protein (FRAP) to bFGF immobilized on heparin (Screen AP assay)
# run parameters: binding of FGF to FGFR; Methods section (ii); read-out: Screen AP assay (IC50)
Field: label. Allowed values: true (1) (IC50 < 100 nM) or false (0) (IC50 >= 100 nM).

O=C(O)c1ccc(-c2c3nc(c(-c4ccc(C(=O)O)cc4)c4ccc([nH]4)c(-c4ccc(C(=O)O)cc4)c4nc(c(-c5ccc(C(=O)O)cc5)c5ccc2[nH]5)C=C4)C=C3)cc1 ... false (0)
C[n+]1ccc(-c2c3nc(c(-c4cc[n+](C)cc4)c4ccc([nH]4)c(-c4cc[n+](C)cc4)c4nc(c(-c5cc[n+](C)cc5)c5ccc2[nH]5)C=C4)C=C3)cc1 [Compound P1] ... true (1)
C[n+]1ccc(C2=Cc3cc4[nH]c(cc5nc(cc6[nH]c(cc2n3)cc6-c2cc[n+](C)cc2)C=C5c2cc[n+](C)cc2)cc4-c2cc[n+](C)cc2)cc1 ... true (1)
COc1ccc(-c2c3nc(c(-c4ccc(OC)cc4)c4ccc([nH]4)c(-c4ccc(OC)cc4)c4nc(c(-c5ccc(OC)cc5)c5ccc2[nH]5)C=C4)C=C3)cc1 ... false (0)

Please look at the following compound next.
Query string: Item C[n+]1ccc(-c2c3nc(c(-c4cc[n+](C)cc4)c4ccc([nH]4)c(-c4cc[n+](C)cc4)c4nc(c(-c5cc[n+](C)cc5)c5ccc2[nH]5)C=C4)C=C3)cc1 [Compound P8] : IC50 beneath 100 nM, strictly?
Result string: true (1)
